Tested on: OVCAR-8 ovarian
Test: NCI tumour cell line growth inhibition, 48 h
TEST READOUT: TGI

Consider the compound shown here: CCOC(=O)C1(Cc2ccc(C)cc2)Cc2ccc(C)cc2C1=O (configuration not stated) What is its recorded TGI?
> 96.6 µM

Query (compound): Nc1c(Br)cc(-c2cc(Br)c(N)c(Br)c2)cc1Br ; field requested: TGI
> 100 µM

Entry COC(=O)C1Cc2c(C)cccc2C1=O (configuration not stated) : reported TGI = ?
> 100 µM

Request the reported TGI associated with On1c(-c2ccccc2)c(-c2c(-c3ccccc3)n(O)c3ccccc23)c2ccccc21
> 100 µM

Suppose we examine the compound C=C1CC2CC[C@@]34C[C@@H]5O[C@@H]6C(O[C@H]7CC[C@H](CC(=O)OC8[C@@H](C)C9OC%10C[C@]%11(C[C@@H]%12O[C@@]%13(C[C@@H](C)[C@@H]%12O%11)C[C@H](C)[C@@H]%11OC%12CC(C(O)CO)OC%12C[C@@H]%11O%13)OC%10CC9O[C@H]8C[C@H]8O[C@@H](CC[C@@H]1O2)C[C@@H](C)C8=C)O[C@@H]7[C@@H]6O3)C5O4 (some centres not stated) ; what TGI value has been reported?
0.0305 µM

Given COc1ccc(-c2nc(-c3nc4ccc(F)cc4[nH]3)cc3c2[nH]c2ccccc23)cc1 , state its recorded TGI.
6.69 µM

Give its TGI value. Item: CCOn1cc(C[C@@]2(O)C(=O)OC3[C@@H](O)CO[C@@]32O)c2ccccc21 (some centres not stated)
> 100 µM

# query: TGI of entry O=C1OCC(c2ccc(O)c(O)c2)=C1c1cc(O)c(O)c(O)c1
> 100 µM

Name the reported TGI value associated with the compound COc1ccc2c(c1O)-c1c(OC)c(OC)cc3c1[C@H](C2)[N+](C)(C)CC3
> 100 µM

I'd like to know its TGI. The compound in question is COc1cc2c(cc1OC)C1c3ccccc3C(C#N)(C2)N(C(=O)c2ccccc2)C1O (configuration not stated)
> 100 µM

Value lookup for TGI; key = Cc1c(/C=C2\CC/C(=C\c3[nH]c(C(=O)OC(C)(C)C)c(C)c3C)C2=O)[nH]c(C(=O)OC(C)(C)C)c1C
> 100 µM

Please give the measured TGI for this compound: CN(C)CC1CCC/C(=C\c2ccc(N(C)C)cc2)C1=O (configuration not stated)
18 µM

Quick check: TGI of CC1(C)CCc2c(cc3c(c2O)CCC(C)(C)O3)O1 ?
> 100 µM

I would be grateful if you could share the reported TGI for Cc1ccc(-c2cc(-c3ccco3)nc(N)n2)o1 .
> 100 µM

Find the recorded TGI belonging to C=C1C(=O)O[C@@H]2C[C@]3(C)[C@@H](C[C@H]12)[C@](C)(O)CC[C@@H]3O and report it.
> 100 µM

Data request, read-out TGI, for COC[C@H]1C(=O)NCC(=O)N2NCCC[C@H]2C(=O)N(O)[C@H](C)C(=O)O[C@@H](C(C)C)[C@H](NC(=O)[C@](C)(O)[C@]2(O)CC[C@@H](CC(C)C)[C@H](C)O2)C(=O)N2NCCC[C@@H]2C(=O)N1O
0.0306 µM

Look up TGI: O=C(CC12CC3CC(CC(C3)C1)C2)NCCOCCOCCNC(=O)c1cc2c(o1)C(=O)c1ccccc1C2=O
11.6 µM
